Test system: RPMI-8226
assay protocol: NCI tumour cell line growth inhibition, 48 h
Activity calls are given as the source filed them. No stated cut-off is given here; in the data, active = GI50 up to about 1.1 µM and inactive = higher.
For each record, write down the corresponding GI50.

Prompt line: So what's the measured GI50 for this one? N/N=C(\C(=O)Nc1c(Cl)cc([N+](=O)[O-])cc1Cl)C(c1cnc2ccc([N+](=O)[O-])cc2n1)[N+](=O)[O-] (stereo unspecified)
Response line: 42.8 µM (inactive)

Prompt line: Now the same for `Cn1c2c(c3ccccc3c1=O)C(=O)c1ccccc1-2`
Response line: > 100 µM (inactive)

Prompt line: Now the same for `FC(F)=C(c1ccc(-c2ccc(Cl)cc2)cc1)C(F)(F)F`
Response line: 23.3 µM (inactive)

Prompt line: Try this compound too: CC(=O)OCC1OC(Nc2ncc(-c3ccc(C)cc3)s2)C(OC(C)=O)C(OC(C)=O)C1OC(C)=O (stereo unspecified)
Response line: 24.7 µM (inactive)

Prompt line: Input `Cc1ccnc2nc(N)ccc12`
Response line: > 100 µM (inactive)

Prompt line: What do we get for `Sc1cnnc2ccc(Br)cc12` ?
Response line: 69 µM (inactive)

Prompt line: What do we get for `NC(=O)c1nnn(-c2ccccc2)c1O` ?
Response line: > 100 µM (inactive)

Prompt line: // same read-out, input: `C#CCNCC(=O)O`
Response line: > 100 µM (inactive)

Prompt line: Record: `CCCCCCSc1nc(N)nc2nc[nH]c12`
Response line: 60.1 µM (inactive)

Prompt line: Also `O=c1oc2c3ccc4ccccc4c3n(CCN3CCOCC3)c2c2ccccc12` , if possible.
Response line: 46.5 µM (inactive)

Prompt line: Would you kindly repeat that for `O=C(CC/C=C(/CS(=O)(=O)c1ccccc1)S(=O)(=O)c1ccccc1)c1ccccc1` ?
Response line: > 100 µM (inactive)

====

System: Hs-578T
assay protocol: NCI tumour cell line growth inhibition, 48 h
The source made the active and inactive calls. Cut-off read from the data, not from the text of the source: active = GI50 up to about 1.1 µM and inactive = higher. Where a SMILES comes first, the peptide text is derived from it. [ ]: non-standard residue; d: D form. Phe(F5) = N[CH](Cc1c(F)c(F)c(F)c(F)c1F)C(=O)O
Field: GI50. Provide a value for each of the molecules that follow.

Prompt line: Using the record for CSCCC(NC(=O)OC(C)(C)C)C(=O)NCCNc1ccc(NCCNC(=O)C(CCSC)NC(=O)OC(C)(C)C)c2c1C(=O)c1ccccc1C2=O (configuration not stated) , report its GI50.
Response line: 2.39 µM (inactive)

Prompt line: `O=C(Nc1ccccc1C(=O)NCc1ccccc1)/C(=C/c1ccccc1O)NC(=O)c1ccccc1` ?
Response line: 69 µM (inactive)

Prompt line: Try this molecule too: Cc1c(C2CCSc3ccccc3N2)sc2ccccc12 (configuration not stated)
Response line: > 100 µM (inactive)

Prompt line: Can you handle COC(=O)C(CC(C)C)NC(=O)C(Cc1c[nH]cn1)NC(=O)CNC(=O)C(NC(=O)C(C)NC(=O)C(Cc1c[nH]c2ccccc12)NC(=O)C(CCC(=O)O)NC(=O)C(N)Cc1c(F)c(F)c(F)c(F)c1F)C(C)C (configuration not stated) (H-[Phe(F5)]EWAVGHL-OMe; configuration not given here) next?
Response line: > 12.5 µM (inactive)

Prompt line: Also `O=c1oc2ccccc2c2c(=O)c3ccc(OC/C(=N/O)c4ccc(Cl)cc4)cc3oc12` , if possible.
Response line: 8.3 µM (inactive)

Prompt line: # repeat for `CC(=O)OCC(=O)O[C@@H]1[C@H]2[C@@H](OC(=O)c3ccccc3)[C@@H](C)C[C@]2(O)[C@H](OC(C)=O)[C@@]2(C)C[C@]1(OC(C)=O)C[C@H]1C(=O)C(C)(C)[C@@H](OC(C)=O)[C@@H]12`
Response line: 9.55 µM (inactive)

Prompt line: # repeat for `O=C(O)c1cc(/C=C/c2ccc(O)c(O)c2)ccc1O`
Response line: > 100 µM (inactive)

====

Tested on: OVCAR-4
assay protocol: NCI tumour cell line growth inhibition, 48 h
Calls of active or inactive are those of the source. No stated cut-off is given here; in the data, active = GI50 up to about 1.1 µM and inactive = higher.
Your reply should match one of these outcome classes. active, inactive

Prompt line: Entry CCN(CC)CCC1(C(=O)OC)SCCc2ccc(C)cc21 (stereo unspecified) : call = ?
Response line: inactive

Prompt line: Lookup `O=C1c2ccccc2/N=C(/c2cc3c(cc2Cl)Sc2nccn2S3(=O)=O)OS(=O)(=O)N1c1ccccc1`
Response line: inactive

Prompt line: Continue with `Cn1c(N)nc(-c2ccc(Cl)cc2)c1SSc1c(-c2ccc(Cl)cc2)nc(N)n1C`
Response line: inactive

Prompt line: Another molecule to look at: `O=C1c2ccccc2-c2ccc(/N=N/c3c(O)ccc4ccccc34)cc21`
Response line: inactive

Prompt line: Entry CCN(CC)CCN1C(=O)CC2[C@@H]3CCc4cc(OC)ccc4C3CC[C@]2(C)C1=O (stereo partly specified) please
Response line: inactive

Prompt line: Next molecule up: Cc1cc(C)c2c(=O)n(CC(O)CN(Cc3ccccc3)CC(O)Cn3sc4nc(C)cc(C)c4c3=O)sc2n1 (stereo unspecified)
Response line: inactive

Prompt line: Next up: `CC1=C2C(=O)c3ccccc3C(=O)[C@H]2C[C@@H](N2CCCC2=O)O1`
Response line: inactive

Prompt line: Param item: COC(=O)C12C3C4(C(=O)OC)C1C1(C(=O)OC)C2C3(C(=O)OC)C41C(=O)N(C(C)C)C(C)C (stereo unspecified)
Response line: inactive

Prompt line: Thanks! And `CCOc1ccc(/N=N/c2ccc3cc(/C(C)=N/NC(=O)/C(C#N)=C\c4ccc(N(CCC#N)CCC#N)cc4)c(=O)oc3c2)cc1` ?
Response line: inactive

Prompt line: Lookup `CC(=C(c1ccccc1)c1ccccc1)N1C(=O)CC(=O)N1C`
Response line: inactive

Prompt line: Subsequent entry: CCCCCCCCCCCCC(Br)C(=O)NCC(N)=O (stereo unspecified)
Response line: inactive

Prompt line: Moving on to the next molecule: Cc1ccc(NC(=O)/C(=N/NC(=O)CC#N)C2C(=O)N(c3ccccc3)N=C2N)cc1C (stereo unspecified)
Response line: inactive

Prompt line: Subsequent entry: C[C@@H]1CC(=O)[C@@]2(C)[C@](O)(CCC3O[C@]32C)[C@@]12CC(c1ccoc1)OC2=O (stereo partly specified)
Response line: inactive

Prompt line: Then `CCOC(=O)c1cc(Br)c(-c2onc(C)c2Br)n1C` ?
Response line: inactive

Prompt line: Can you check `COC(=O)/C=C1\C(=O)N(C(C)=O)c2ccccc21` next?
Response line: inactive

Prompt line: What do we get for Cc1ccccc1N1C(N)=C(C#N)C(C#N)(C#N)C1c1ccccc1 (stereo unspecified) ?
Response line: inactive

Prompt line: Next molecule up: `COc1ccc(/N=c2\ssc3c(=S)ssc23)cc1`
Response line: inactive

Prompt line: Then NCCCC(N)(C(=O)O)C(F)F (stereo unspecified) ?
Response line: inactive

Prompt line: Entry to check: CCC(C)C(=O)O[C@H]1C(=O)O[C@@H]2C[C@H]3C(C)=CC(=O)[C@@H](O)[C@]3(C)[C@H]3[C@@H](O)[C@H](O)[C@@]4(C)OC[C@]32[C@@H]14 (stereo partly specified)
Response line: active

Prompt line: Same for `Cc1ccc(N(C)S(=O)(=O)c2ccc([N+](=O)[O-])cc2)cc1`
Response line: inactive

Prompt line: Now the molecule CN(C)CCC1(C2=CCCC2)CC/C(=C\c2ccc(Cl)cc2)C1=O (stereo unspecified)
Response line: inactive

Prompt line: Then this molecule: O=C(O)CCC(=O)c1ccc2c(c1)C(C(=O)O)CC2 (stereo unspecified)
Response line: inactive

Prompt line: Also, `C=CCn1c(-c2ccc(Cl)cc2Cl)cs/c1=N\c1c(C)n(C)n(-c2ccccc2)c1=O` please.
Response line: inactive

Prompt line: Let us now turn to COC(=O)C(/C(=N/NC(N)=S)C(=O)Nc1ccccc1[N+](=O)[O-])c1cnc2ccccc2n1 (stereo unspecified)
Response line: inactive

Prompt line: Could you do the same for `CC(C)(C)[C@@H]1NC(=O)CN1C(=O)OCc1ccccc1` , please?
Response line: inactive

Prompt line: Lookup `CCC1(CC)C(=O)CC[C@@]2(C)C1=CC[C@H]1[C@@H]3CC[C@H](O)[C@@]3(C)CC[C@@H]12`
Response line: inactive

Prompt line: Entry `COc1ccc(/C=C/c2nccc3ccccc23)cc1OC` please
Response line: inactive

Prompt line: Try the molecule CC(C)(C)OC(=O)N1CC(O)O[C@H](c2ccccc2)[C@@H]1c1ccccc1 (stereo partly specified)
Response line: inactive

Prompt line: Now give it for `CN(C)CCNC(=O)c1cc(Cl)cc2cc3ccccc3nc12` too.
Response line: inactive

Prompt line: Another molecule to check: `O=C(Nc1c(C(F)(F)F)cc(-c2ccccc2)[nH]c1=O)N1CCOCC1`
Response line: inactive

Prompt line: Try this molecule next: CC(C)(O)C1CC(=O)C(C)(C2C(O)CC3(C)C4CC=C5C(CCC(O)C5(C)C)C4(C)C(=O)CC23C)O1 (stereo unspecified)
Response line: inactive

Prompt line: # repeat for `CSc1nc2c(c(N(C)C)n1)C=Nn1c(nc3ccccc31)S2`
Response line: inactive

Prompt line: What about `COc1ccc(-n2cnc3c(NCC(=O)O)ncnc32)cc1` ?
Response line: inactive

Prompt line: How about COc1ccccc1C1Nn2c(nc3ccccc3c2=O)N1c1ccc(C)cc1 (stereo unspecified) ?
Response line: inactive

Prompt line: Try the molecule `CN(C)c1ccc(C=c2c3ccccc3n3c2cc(-c2ccc(Cl)cc2)[n+]3C)cc1`
Response line: active

Prompt line: Now try `Cn1cnc(N)c(N=O)c1=O` .
Response line: inactive

Prompt line: Param item: CN(c1ccccc1)C(c1ccccc1)C(O)c1ccccc1 (stereo unspecified)
Response line: inactive

Prompt line: Record: `C=C(C)CNCC(=C)C.Oc1c(Cl)c(Cl)c(Cl)c(Cl)c1Cl`
Response line: inactive

Prompt line: Same again, this time with CC1O[C@@H]2CCCCC(=O)[C@]2(C)[C@H]1C (stereo partly specified)
Response line: inactive

Prompt line: Entry to check: C/C=C(/COC(C)=O)C(=O)OC1C=C(C=O)C(C)(C)C=C1C (stereo unspecified)
Response line: inactive

Prompt line: Thanks! And `Fc1ccc(OCc2ccc3nc(-c4ccccc4)c(Cl)nc3c2)cc1` ?
Response line: inactive
